tested on: human TNF (Tumor Necrosis Factor) citotoxicity on LM cells (murine fibroblast strain); test: In vitro anti-inflammatory activity: inhibition of the citotoxicity induced by human TNF on a murine fibroblast strain (LM cells, MTT); type: cell-based; conditions: Mus musculus, TNF 5 ng/ml, compound 10 μg/ml, read-out: % of inhibition, TNF (5 ng/ml)
PROPERTY MEASURED: inhibition at 10 µg/mL (%)
Answer with a number only, understood to be in %.

The recorded inhibition at 10 µg/mL for CCCCN(CCCC)CCC(C)OC(=O)OC(C)CCN(CCCC)CCCC (stereo not shown) [8, D]] is 56

The recorded inhibition at 10 µg/mL for CCCCN(CCCC)CCCC(C)OC(=O)OC(C)CCCN(CCCC)CCCC (stereo not shown) [10, C]] is 73

The recorded inhibition at 10 µg/mL for CCCCN(CCCC)[C@@H]1CCCC[C@H]1OC(=O)OCC1CCCN(C)C1 (stereo partly shown) [5, C]] is 21

The recorded inhibition at 10 µg/mL for CCCCN(CCCC)CCCOC(=O)OC(C)CCCN(CCCC)CCCC (stereo not shown) [12, B]] is 50
